# MEASURED_TARGET: T1, soluble human FcRn (shFcRn) (human, UniProt P55899 24-297; P61769 21-119)
# T1 construct: Biotinylated for the ELISA, amine-coupled to a CM5 chip for SPR; also called biotinylated shFcRn
# T1 sequence (P55899 24-297 limits assumed, chain 1 of 2): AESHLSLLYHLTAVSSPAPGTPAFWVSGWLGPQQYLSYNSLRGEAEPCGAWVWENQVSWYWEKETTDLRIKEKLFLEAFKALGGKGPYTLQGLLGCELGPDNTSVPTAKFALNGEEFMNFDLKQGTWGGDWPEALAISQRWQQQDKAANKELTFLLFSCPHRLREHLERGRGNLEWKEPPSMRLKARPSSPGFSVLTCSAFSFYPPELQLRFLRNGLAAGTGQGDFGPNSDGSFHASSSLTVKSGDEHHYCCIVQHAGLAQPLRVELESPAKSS
# T1 sequence (P61769 21-119 limits assumed, chain 2 of 2): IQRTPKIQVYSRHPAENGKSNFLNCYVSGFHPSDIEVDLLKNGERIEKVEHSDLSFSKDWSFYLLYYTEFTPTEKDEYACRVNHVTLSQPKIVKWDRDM
# METHOD: IgG competition ELISA
Bridge positions count the residues as written; N and C are the ends. Square brackets hold non-standard residues; d marks the D form. Ends that are not written are not given here. NMeL = CN[C@@H](CC(C)C)C(=O)O; Pen = CC(C)(S)[C@H](N)C(=O)O; Sar = CNCC(=O)O
ATTRIBUTE_MEASURED: IC50 (µM)
Numeric answer only, unit µM assumed.

## Input Recorded IC50 for RF[Pen]TGHF[dT][Sar][NMeL]YPC-NH2 (disulfide 3-13; N-terminus assumed; SMILES CC(C)C[C@H]1C(=O)N[C@@H](Cc2ccc(O)cc2)C(=O)N2CCC[C@H]2C(=O)N[C@H](C(N)=O)CSSC(C)(C)[C@H](NC(=O)[C@H](Cc2ccccc2)NC(=O)[C@@H](N)CCCNC(=N)N)C(=O)N[C@@H]([C@@H](C)O)C(=O)NCC(=O)N[C@@H](Cc2c[nH]cn2)C(=O)N[C@@H](Cc2ccccc2)C(=O)N[C@H]([C@H](C)O)C(=O)N(C)CC(=O)N1C) [Peptide No. 240] , please?
## Output 71
